Reference source for all entries: patent US8785489B2

These compounds were tested on MMP13 (Homo sapiens (Human), UniProt P45452); pIC50 is the recorded read-out.
In plain terms, pIC50 is the concentration in mol/L turned into minus its base-10 logarithm.

> print(dat)
                                   compound  measurement.label  value.observed
1  Cc1noc(-c2cc3cc(-c4nc(C(=O)NCc5nccs5)[nH]c4C)ccc3[nH]2)n1              pIC50            8.70
2  Cc1noc(-c2cc3cc(-c4cc(C(=O)NCc5cccs5)nn4C)ccc3[nH]2)n1              pIC50            7.36
3  Cc1noc(-c2cc3cc(-c4nc(C(=O)NCc5ccnnc5)[nH]c4C)ccc3[nH]2)n1              pIC50            8.92

### Prompt Tell me reported pIC50 for Cc1noc(-c2cc3cc(-c4cc(C(=O)NCc5cscn5)nn4C)ccc3[nH]2)n1 , tested with MMP13 (Homo sapiens (Human), UniProt P45452).
### Response 7.03

### Prompt Give MMP13 (Homo sapiens (Human), UniProt P45452) pIC50 for Cc1noc(-c2cc3nc(-c4nc(C(=O)NCc5ccncc5)[nH]c4C)ccc3[nH]2)n1
### Response 7.70

### Prompt What value of pIC50 on MMP13 (Homo sapiens (Human), UniProt P45452) does Cc1noc(-c2cc3cc(-c4nc(C(=O)NCc5nnc6n5CCC6)[nH]c4C)ccc3[nH]2)n1 have?
### Response 8.40

### Prompt Provide value of pIC50 for this record tested with MMP13 (Homo sapiens (Human), UniProt P45452): Cc1noc(-c2cc3cc(-c4nc(C(=O)NCC5CC5)[nH]c4C)ccc3[nH]2)n1
### Response 8.10

### Prompt Report pIC50 for Cc1noc(-c2cc3cc(-c4nc(C(=O)NCc5ccc(=O)[nH]c5)[nH]c4C)ccc3[nH]2)n1 tested on MMP13 (Homo sapiens (Human), UniProt P45452).
### Response 9.70

* * *

So I've got IC50 readings for MMP13 (Homo sapiens (Human), UniProt P45452), take a look.
# output: bare number, implied unit nM

Solved entries:
> print(dat)
                                   molecule  uom  value.observed
1  Cc1noc(-c2cc3cc(-c4nc(C(=O)NCc5cccs5)[nH]c4C)ccc3[nH]2)n1   nM               2
2  Cc1noc(-c2cc3cc(-c4ccnc(C(=O)NCc5ccncc5)c4)ccc3[nH]2)n1   nM              12
3  Cc1noc(-c2cc3cc(-c4cc(C(=O)NCc5ccn(C)n5)nn4C)ccc3[nH]2)n1   nM             185
4  Cn1nc(C(=O)NCc2ccc(C(=O)O)cc2)cc1-c1ccc2[nH]c(-c3cncnc3)cc2c1   nM               5

# ---- query molecule ----
### Prompt Give recorded IC50 with MMP13 (Homo sapiens (Human), UniProt P45452) for the following molecule: Cc1noc(-c2cc3cc(-c4nc(C(=O)NCC5CCCCO5)[nH]c4C)ccc3[nH]2)n1 (centres unmarked)
### Response 5

* * *

Attribute: pIC50
assay_system: MMP13 (Homo sapiens (Human), UniProt P45452)
Friendly reminder that pIC50 comes from taking -log10 of the concentration in mol/L.

> print(dat)
                                  structure                              assay.system  value.observed
1  CCOC(=O)c1cc2nc(-c3nc(C(=O)NCc4ccncc4)[nH]c3C)ccc2[nH]1  MMP13 (Homo sapiens (Human), UniProt P45452)            7.02
2  Cc1noc(-c2cc3cc(-c4cc(C(=O)NCc5nccs5)nn4C)ccc3[nH]2)n1  MMP13 (Homo sapiens (Human), UniProt P45452)            7.14
3  CCOC(=O)c1cc2cc(-c3ccnc(C(=O)NCc4ccc(C(=O)O)cc4)c3)ccc2[nH]1  MMP13 (Homo sapiens (Human), UniProt P45452)            9.15

### Prompt What measured pIC50 is associated with Cc1noc(-c2cc3cc(-c4cc(C(=O)NCc5ccnc(Cl)c5)nn4C)ccc3[nH]2)n1 on MMP13 (Homo sapiens (Human), UniProt P45452)?
### Response 8.40

### Prompt Query pIC50 on MMP13 (Homo sapiens (Human), UniProt P45452) for CCOC(=O)c1cc2cc(-c3cc(C(=O)NCc4ccncc4)ncc3C)ccc2[nH]1
### Response 6.81

* * *

Measured IC50 on MMP13 (Homo sapiens (Human)) follows.
Return type: number; implicit unit nM.

Reference set, count: 3
> print(dat)
                                  structure  value.observed
1  Cc1noc(-c2cc3cc(-c4nc(C(=O)NC[C@H]5CCCO5)[nH]c4C)ccc3[nH]2)n1               5
2  CCOC(=O)c1cc2cc(-c3nc(C(=O)NCc4ccncc4)[nH]c3C)cnc2[nH]1              49
3  Cc1cc(Cn2cc(-c3nc(C(=O)NCc4ccc(C(=O)O)cc4)[nH]c3C)cn2)ccc1F              88

### Prompt Query IC50 on MMP13 (Homo sapiens (Human)) for CCOC(=O)c1cc2cc(-c3cc(C(=O)NCc4ccc(CC(=O)O)cc4)nn3C)ccc2[nH]1
### Response 3

### Prompt Kindly state the measured IC50 obtained for Cn1nc(C(=O)NCc2ccc(C(=O)O)cc2)cc1-c1ccc2[nH]c(-c3ncccn3)cc2c1 with MMP13 (Homo sapiens (Human)).
### Response 1.6

### Prompt Lab note: need IC50 with MMP13 (Homo sapiens (Human)) for entry Cc1noc(-c2cc3cc(-c4nc(C(=O)NCc5cccnc5)[nH]c4C)ccc3[nH]2)n1 , please look it up.
### Response 0.6

* * *

Here's what we have: pIC50 numbers for MMP13 (Homo sapiens (Human), UniProt P45452).
// field semantics: pIC50 = negative decimal log of concentration (mol/L)

Example molecules with recorded pIC50:
> print(dat)
                                   molecule  measurement.label  value.observed
1  Cc1noc(-c2cc3cc(-c4cc(C(=O)NCc5ccc(C#N)cc5)nn4C)ccc3[nH]2)n1              pIC50            8.00
2  Cc1nc(-c2cc3cc(-c4ccnc(C(=O)NCc5ccncc5)c4)ccc3[nH]2)no1              pIC50            7.42
3  Cc1noc(-c2cc3cc(-c4cc(C(=O)NCc5ccc(F)cc5)nn4C)ccc3[nH]2)n1              pIC50            7.59
4  Cn1cc(-c2cc3cc(-c4cc(C(=O)NCc5ccc(C(=O)O)cc5)nn4C)ccc3[nH]2)cn1              pIC50            8.82

### Prompt I'm curious: which pIC50 was measured for Cc1noc(-c2cc3cc(-c4cc(C(=O)NCc5ccccc5)nn4C)ccc3[nH]2)n1 tested on MMP13 (Homo sapiens (Human), UniProt P45452)?
### Response 7.59

### Prompt # value lookup — system MMP13 (Homo sapiens (Human), UniProt P45452), readout pIC50, item CCOC(=O)c1cc2cc(-c3nc(C(=O)NCc4ccncc4)[nH]c3C)ccc2[nH]1
### Response 8.70

* * *

Target or system MMP13 (Homo sapiens (Human), UniProt P45452); recorded quantity IC50.
Field note: include the unit after the figure.

Illustrative cases are given below, each with its answer.
> print(dat)
                                   molecule  value.observed
1  Cc1noc(-c2cc3cc(-c4nc(C(=O)NCc5ccc(C(O)C(F)(F)F)cc5)[nH]c4C)ccc3[nH]2)n1 (stereo not shown)           18 nM
2  Cc1noc(-c2cc3cc(-c4nc(C(=O)NCc5ccncn5)[nH]c4C)ccc3[nH]2)n1          0.6 nM
3  Cc1noc(-c2cc3cc(-c4cc(C(=O)NCc5ccco5)nn4C)ccc3[nH]2)n1           27 nM

We now examine a further molecule.
### Prompt Give the reported IC50 for Cc1noc(-c2cc3cc(-c4nc(C(=O)NCc5ccnc(C#N)c5)[nH]c4C)ccc3[nH]2)n1 (system: MMP13 (Homo sapiens (Human), UniProt P45452)).
### Response 0.95 nM
